- assay_target: T1, fragment DIR-II (last 27 amino acids of the sequence encoded by the retained intron of DIR) (human)
- T1 construct: also called target fragment DIR-II
- T1 peptide: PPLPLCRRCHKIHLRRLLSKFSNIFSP
- assay_procedure: ELISA, DIR-II coated; mAb (1 mg/mL) diluted 1:4374k
- Experimental: The binding activity of the above antibodies IR-II-1 to IR-II-10 to fragments DIR-II was detected. The method specifically comprises: The target fragment DIR-II was coated on a 96-well plate using a coating buffer and blocked with a blocking buffer. […] Then, a secondary antibody with horseradish peroxidase (1:5k) was added and incubated at 37° C. […]
recorded_metric: absorbance at 450 nm

[[record]]
binder = "DIR antibody IR-II-9 (antibody, V domains shown, Monoclonal antibody) VH: QVQLQQSGAELMKPGASVKISCKATGYTFSRYWIEWIKQRPGHGLEWIGEILPGSYYSTNSNEKFKGKATFTADTSSNTAYMQLSSLTSEDSAVYYCARSGVITTRGDYFAMDYWGHGTSVTVSS VL: DIELTQSPASLAVSLGQRATISCKASQSVDYDGESYMNWYQQKPGQPPKLLIYAASNLESGIPARFSGSGSGTDFTLNIHPVEEEDAATYYCQQSYDDPRAFGGGTKLEIK"
recorded_metric = "absorbance at 450 nm"
reported_measurement = "0.193 absorbance (450 nm)"

[[record]]
binder = "DIR antibody IR-II-1 (antibody, V domains shown, Monoclonal antibody) VH: QVQLKESGAELMKPGASVKISCKATGYTFSSYWIEWVKQRPGHGLEWIGEILPGSGTTNYNDKFKGKATFTADTSSNTAYMQLSNLTSEDSAVYYCARSYDGYYVFDYWGQGTTLTVSS VL: DIELTQSPASLAVSLGQRATISCKASQSVDYDGDSYMNWYQQKPGQPPKLLIYAASNLESGIPARFSGSGSGTDFTLNIHPVEEEDAATYYCQQSNEDPRTFGGGTKLEIK"
recorded_metric = "absorbance at 450 nm"
reported_measurement = "0.0934 absorbance (450 nm)"

[[record]]
binder = "DIR antibody IR-II-6 (antibody, V domains shown, Monoclonal antibody; also called detection antibody) VH: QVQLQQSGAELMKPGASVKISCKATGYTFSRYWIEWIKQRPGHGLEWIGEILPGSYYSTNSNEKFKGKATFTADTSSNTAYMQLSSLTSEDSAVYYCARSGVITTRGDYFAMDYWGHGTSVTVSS VL: DIVLTQSPASLAVSLGQRATISCKASQSVDYDGDSYMNWYQQKPGQPPKLLMYAASNLESGIPARFSGSGSGTDFTLNIHPVEEEDAATYYCQQSNEDPRTFGGGTKLEIK"
recorded_metric = "absorbance at 450 nm"
reported_measurement = "0.18 absorbance (450 nm)"


Origin of the recorded values: patent US20250060376A1
